Recorded values, source patent US11584735B2.

pIC50: −log10 of the molar value.
measure name: pIC50

Param readout= pIC50; system= Human Factor XIIa (Homo sapiens (Human), UniProt P00748); entry= COCc1nn(Cc2ccc(Cn3ccccc3=O)cc2)cc1C(=O)NCc1nccc(OC)c1F ; returns value.
< 4.40

* * *

# test system: Human FXIa (Homo sapiens (Human), UniProt P03951)
# Sequence (P03951 388-625): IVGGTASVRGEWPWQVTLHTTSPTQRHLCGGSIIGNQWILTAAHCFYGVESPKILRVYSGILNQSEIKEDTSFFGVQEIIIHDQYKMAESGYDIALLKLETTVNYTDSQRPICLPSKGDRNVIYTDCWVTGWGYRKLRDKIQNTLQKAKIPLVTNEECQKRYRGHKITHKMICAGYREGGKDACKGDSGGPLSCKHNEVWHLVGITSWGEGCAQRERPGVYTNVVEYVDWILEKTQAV
# Sequence (P03951 19-387 partner): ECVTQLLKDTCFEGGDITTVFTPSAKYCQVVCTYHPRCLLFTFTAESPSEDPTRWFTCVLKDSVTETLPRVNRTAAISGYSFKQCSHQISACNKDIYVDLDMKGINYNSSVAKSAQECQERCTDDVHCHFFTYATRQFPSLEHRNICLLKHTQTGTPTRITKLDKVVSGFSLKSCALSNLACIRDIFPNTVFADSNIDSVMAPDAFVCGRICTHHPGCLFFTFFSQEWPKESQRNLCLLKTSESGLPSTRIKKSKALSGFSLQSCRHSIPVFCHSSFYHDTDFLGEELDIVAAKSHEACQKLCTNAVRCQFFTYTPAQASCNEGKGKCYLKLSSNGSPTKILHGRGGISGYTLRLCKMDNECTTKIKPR
measure name: IC50

Fill blank: measured IC50 of the molecule COCc1nn(Cc2ccc(Cn3ccccc3=O)cc2)cc1C(=O)NCc1nccc(OC)c1F is ____.
> 40 µM
